molecular target: JAK3 enzyme (Homo sapiens (Human)); test: JAK Caliper Enzyme Assay at 4 μM or 1 mM ATP; assay type: biochemical; details: read-out: JAK3 (4 μM ATP) IC50; 4 μM ATP
Sequence (P52333 whole entry, species assumed): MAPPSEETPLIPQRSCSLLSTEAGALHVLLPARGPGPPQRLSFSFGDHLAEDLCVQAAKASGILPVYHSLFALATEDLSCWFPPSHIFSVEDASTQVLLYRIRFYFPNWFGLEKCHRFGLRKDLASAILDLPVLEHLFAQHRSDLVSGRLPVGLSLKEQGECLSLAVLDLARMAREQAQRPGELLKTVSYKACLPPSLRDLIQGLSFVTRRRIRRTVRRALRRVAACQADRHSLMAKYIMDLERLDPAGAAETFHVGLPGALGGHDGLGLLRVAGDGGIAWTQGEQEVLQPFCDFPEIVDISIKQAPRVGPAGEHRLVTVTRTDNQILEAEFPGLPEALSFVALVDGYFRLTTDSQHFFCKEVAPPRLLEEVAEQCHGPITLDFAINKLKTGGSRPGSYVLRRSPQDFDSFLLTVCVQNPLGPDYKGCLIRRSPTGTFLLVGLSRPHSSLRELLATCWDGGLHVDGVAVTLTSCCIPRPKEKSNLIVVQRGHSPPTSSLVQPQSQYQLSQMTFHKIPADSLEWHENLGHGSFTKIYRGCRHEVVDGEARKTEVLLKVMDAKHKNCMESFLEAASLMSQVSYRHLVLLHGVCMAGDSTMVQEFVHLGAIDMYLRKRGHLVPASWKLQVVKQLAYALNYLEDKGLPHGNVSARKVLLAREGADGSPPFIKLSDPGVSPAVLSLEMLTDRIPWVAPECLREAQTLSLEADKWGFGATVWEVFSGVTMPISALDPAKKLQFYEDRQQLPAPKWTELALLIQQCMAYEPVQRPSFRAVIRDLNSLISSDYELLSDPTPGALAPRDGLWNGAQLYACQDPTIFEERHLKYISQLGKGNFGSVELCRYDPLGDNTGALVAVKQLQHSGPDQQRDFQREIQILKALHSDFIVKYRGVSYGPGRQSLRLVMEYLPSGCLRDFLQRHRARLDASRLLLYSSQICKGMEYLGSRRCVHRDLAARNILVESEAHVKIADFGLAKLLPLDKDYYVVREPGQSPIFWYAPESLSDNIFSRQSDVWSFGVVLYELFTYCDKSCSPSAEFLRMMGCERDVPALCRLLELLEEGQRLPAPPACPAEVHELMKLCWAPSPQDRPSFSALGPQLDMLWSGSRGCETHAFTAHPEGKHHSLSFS
Known pIC50 of a selection of compounds
# pIC50 = -log10(concentration in molar units)

Reference set (3 entries):
[
  {
    "Structure String": "C=CC(=O)N1CCC(Nc2cnc3[nH]cc(C(=O)N4CCC4)c3n2)CC1",
    "Test System": "JAK3 enzyme (Homo sapiens (Human))",
    "pIC50": 8.72
  },
  {
    "Structure String": "C=CC(=O)N(C)C1CN(c2cnc3[nH]cc(C(=O)NC(C)C)c3n2)C1",
    "Test System": "JAK3 enzyme (Homo sapiens (Human))",
    "pIC50": 9.22
  },
  {
    "Structure String": "C=CC(=O)N1CCC(Nc2cnc3[nH]cc(C(=O)N[C@H](C(C)C)[C@@H](O)C(F)(F)F)c3n2)CC1",
    "Test System": "JAK3 enzyme (Homo sapiens (Human))",
    "pIC50": 9.40
  }
]

Input line: Suppose we examine the compound C=CC(=O)N1CCC(Nc2cnc3[nH]cc(C(=O)N[C@@H](C)CC)c3n2)CC1 ; what pIC50 value has been reported?
Output line: 9.52
